# experimental_target: AKT1-E17K (Homo sapiens, UniProt P31749, E17K)
# Sequence (P31749 whole entry E17K): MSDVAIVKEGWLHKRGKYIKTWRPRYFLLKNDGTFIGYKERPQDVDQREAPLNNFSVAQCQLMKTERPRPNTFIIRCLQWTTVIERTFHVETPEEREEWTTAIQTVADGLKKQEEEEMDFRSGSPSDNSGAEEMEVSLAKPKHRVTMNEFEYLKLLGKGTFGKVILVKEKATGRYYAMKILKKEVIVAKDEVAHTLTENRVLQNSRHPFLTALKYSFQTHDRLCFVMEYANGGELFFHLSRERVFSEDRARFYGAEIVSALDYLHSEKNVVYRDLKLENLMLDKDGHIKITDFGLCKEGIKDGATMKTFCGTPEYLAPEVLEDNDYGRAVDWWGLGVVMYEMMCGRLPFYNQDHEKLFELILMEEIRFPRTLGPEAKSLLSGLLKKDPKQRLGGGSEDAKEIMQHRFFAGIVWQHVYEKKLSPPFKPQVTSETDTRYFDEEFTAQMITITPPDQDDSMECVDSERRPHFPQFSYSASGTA
# test_details: NanoBRET Target Engagement (TE) Assay
# condition_context: full length AKT E17K NanoLuc fusion in transfected HEK-293 cells; 2 hr equilibration with tracer and compound
readout: IC50

Observe how each entry below is paired with its result.
compound	readout_value
N#CN1CCN(Cc2ccc(-n3c(-c4cccnc4N)nc4ccc(-c5ccccc5)nc43)cc2)CC12CC2	60 to 600 nM
N#CN1C[C@@H]2C[C@H]1CN2Cc1ccc(-n2c(-c3cccnc3N)nc3ccc(-c4ccccc4)nc32)cc1	60 to 600 nM
N#CN1CCC2(CCN(Cc3ccc(-n4c(-c5cccnc5N)nc5ccc(-c6ccccc6)nc54)cc3)C2)C1 (stereo not shown)	15 to 60 nM

input: # lookup: IC50 of N#CN[C@H]1CCN(Cc2ccc(-n3c(-c4cccnc4N)nc4ccc(-c5ccccc5)nc43)cc2)C1
output: < 15 nM

input: # lookup: IC50 of N#CNN1CCN(Cc2ccc(-n3c(-c4cccnc4N)nc4ccc(-c5ccccc5)nc43)cc2)CC1
output: < 15 nM

input: # lookup: IC50 of N#CN1CC[C@@]2(CCN(Cc3ccc(-n4c(-c5cccnc5N)nc5ccc(-c6ccccc6)nc54)cc3)C2)C1
output: < 15 nM

input: # lookup: IC50 of N#CNC1CCC2(CC1)CCN(Cc1ccc(-n3c(-c4cccnc4N)nc4ccc(-c5ccccc5)nc43)cc1)C2 (stereo not shown)
output: 60 to 600 nM

====

# experimental_target: AKT1-E17K (Homo sapiens, UniProt P31749, E17K)
# test_details: NanoBRET Target Engagement (TE) Assay
# condition_context: full length AKT E17K NanoLuc fusion in transfected HEK-293 cells; 2 hr equilibration with tracer and compound
pIC50: −log10 of the molar value.
readout: pIC50

Observe how each entry below is paired with its result.
compound	experimental_target	readout_value
N#CN1CCC2(CC1)CCN(Cc1ccc(-n3c(-c4cccnc4N)nc4ccc(-c5ccccc5)nc43)cc1)C2 [Example 20]	AKT1-E17K (Homo sapiens, UniProt P31749, E17K)	7.22 to 7.82
N#CNC1CCN(Cc2ccc(-n3c(-c4cccnc4N)nc4cccnc43)cc2)CC1 [Example 1]	AKT1-E17K (Homo sapiens, UniProt P31749, E17K)	< 6.22

Switching to the query record.
input: # lookup: pIC50 of CN(C#N)C1CCN(Cc2ccc(-n3c(-c4cccnc4N)nc4ccc(-c5ccccc5)nc43)cc2)CC1 [Example 14]
output: 7.22 to 7.82

====

# experimental_target: AKT1-E17K (Homo sapiens, UniProt P31749, E17K)
# test_details: NanoBRET Target Engagement (TE) Assay
# condition_context: full length AKT E17K NanoLuc fusion in transfected HEK-293 cells; 2 hr equilibration with tracer and compound
pIC50: −log10 of the molar value.
// reported pIC50 for each item listed

input: Test system AKT1-E17K (Homo sapiens, UniProt P31749, E17K); read-out pIC50; what value for C[C@@H]1CN(Cc2ccc(-n3c(-c4cccnc4N)nc4ccc(-c5ccccc5)nc43)cc2)CCN1C#N [Example 27] ?
output: < 6.22

input: Test system AKT1-E17K (Homo sapiens, UniProt P31749, E17K); read-out pIC50; what value for N#CN1CC[C@]2(CCN(Cc3ccc(-n4c(-c5cccnc5N)nc5ccc(-c6ccccc6)nc54)cc3)C2)C1 [Example 40] ?
output: > 7.82

input: Test system AKT1-E17K (Homo sapiens, UniProt P31749, E17K); read-out pIC50; what value for N#CN[C@@H]1CCCN(Cc2ccc(-n3c(-c4cccnc4N)nc4ccc(-c5ccccc5)nc43)cc2)C1 [Example 9] ?
output: 7.22 to 7.82

input: Test system AKT1-E17K (Homo sapiens, UniProt P31749, E17K); read-out pIC50; what value for C[C@H]1CN(Cc2ccc(-n3c(-c4cccnc4N)nc4ccc(-c5ccccc5)nc43)cc2)C[C@H](C)N1C#N [Example 25] ?
output: 6.22 to 7.22

input: Test system AKT1-E17K (Homo sapiens, UniProt P31749, E17K); read-out pIC50; what value for N#CN1CCCN(Cc2ccc(-n3c(-c4cccnc4N)nc4ccc(-c5ccccc5)nc43)cc2)CC1 [Example 12] ?
output: 6.22 to 7.22

input: Test system AKT1-E17K (Homo sapiens, UniProt P31749, E17K); read-out pIC50; what value for N#CN1CC2(CCN(Cc3ccc(-n4c(-c5cccnc5N)nc5ccc(-c6ccccc6)nc54)cc3)C2)C1 [Example 18] ?
output: 6.22 to 7.22

input: Test system AKT1-E17K (Homo sapiens, UniProt P31749, E17K); read-out pIC50; what value for N#CN1CCC2(C1)CN(Cc1ccc(-n3c(-c4cccnc4N)nc4ccc(-c5ccccc5)nc43)cc1)C2 [Example 38] ?
output: > 7.82

input: Test system AKT1-E17K (Homo sapiens, UniProt P31749, E17K); read-out pIC50; what value for N#CNC1CCN(Cc2ccc(-n3c(-c4cccnc4N)nc4ccc(-c5ccccc5)nc43)cc2)CC1 [Example 3] ?
output: > 7.82

input: Test system AKT1-E17K (Homo sapiens, UniProt P31749, E17K); read-out pIC50; what value for N#CN1CCC2(CC1)CN(Cc1ccc(-n3c(-c4cccnc4N)nc4ccc(-c5ccccc5)nc43)cc1)C2 [Example 22] ?
output: 6.22 to 7.22

input: Test system AKT1-E17K (Homo sapiens, UniProt P31749, E17K); read-out pIC50; what value for [2H]C([2H])([2H])N(C#N)C1CCN(Cc2ccc(-n3c(-c4cccnc4N)nc4ccc(-c5ccccc5)nc43)cc2)CC1 [Example 41] ?
output: 7.22 to 7.82

input: Test system AKT1-E17K (Homo sapiens, UniProt P31749, E17K); read-out pIC50; what value for N#CN[C@H]1CCCN(Cc2ccc(-n3c(-c4cccnc4N)nc4ccc(-c5ccccc5)nc43)cc2)C1 [Example 6] ?
output: 7.22 to 7.82

input: Test system AKT1-E17K (Homo sapiens, UniProt P31749, E17K); read-out pIC50; what value for C[C@H]1CN(Cc2ccc(-n3c(-c4cccnc4N)nc4ccc(-c5ccccc5)nc43)cc2)CCN1C#N [Example 32] ?
output: < 6.22

input: Test system AKT1-E17K (Homo sapiens, UniProt P31749, E17K); read-out pIC50; what value for N#CN1CCCC2(CCN(Cc3ccc(-n4c(-c5cccnc5N)nc5ccc(-c6ccccc6)nc54)cc3)CC2)C1 [Example 24] ?
output: 6.22 to 7.22
